# Procedure Text: yeast display, Sf9 membrane polyspecificity reagent, FACS + sequencing; frameworks hold sequencing errors

Residue Sequence: QVQLVESGGGLVQAGGSLRLICAASGVIFTGYTMGWYREAPGKESELVAAISYRGGSTYYADSVKGRFTISRDNAKITVYFQMNRLKPEDTAVYYCNAVWSNFRLGYDHWGQGTQVTVSS
polyreactivity (PSR sort gate): high polyreactivity
--
Residue Sequence: QVQLVESGGGLVQAGGSLRLSCAASGSTFKRYAMGWYRQAPGKEWELVAAISASGGSTSYADSVKGRFTISRDKAKNTVYLQMNSLIPEDTAVYYCARDRFRSRLDYWGQGTQVTVSS
polyreactivity (PSR sort gate): high polyreactivity
--
Residue Sequence: QVQLVESGGGLVQAGGSLRLSCAASGSIFTGYAMGWYRQAPGKDRELVAGISWGGTSTYYADSVKGRFTISRDTAKNTVYLQMNSLKPEDTAVYYCSAVRGKYGYLTTPYWFDYWGQGTQVTVSS
polyreactivity (PSR sort gate): high polyreactivity

----------
# Procedure Text: yeast display, Sf9 membrane polyspecificity reagent, FACS + sequencing; frameworks hold sequencing errors
Test Readout: polyreactivity (PSR sort gate)

Residue Sequence: QVQLVESGGGLDQAGGSLRLSCAASASIFWGYDMGWYRQAPGKEREFVARISYSGGSTSYAESVKGRFTISRDNAKNTVYLQMNSLKPEDTAVYYCAADEGVFWWTYPYDSWGQGTQVTVSS
Test Readout: polyreactivity (PSR sort gate)
Measurement: low polyreactivity
//
Residue Sequence: QVQLVESGGGLVQAGGSLRLSCAASGRTFYYYAMGWYRQAPGKERELVASISWSGGSTYYADSVKGRFTISRDNAKNTVYLQMNSLKPEDTAVYYCNAQYHTYRWLYAVYLSGDYWGQGTQVTVSS
Test Readout: polyreactivity (PSR sort gate)
Measurement: low polyreactivity
//
Residue Sequence: QVQLVESGGGLVQAGGSLRLSCAASGRTFWVNAMGSYRQAPGKERELVATIRGSGVSTYYADSVKGRFTISRDNAKNTVYLQMNSLKPEDTAVYYCAAGFAGGYGVTFDYCGQGTQVTVSS
Test Readout: polyreactivity (PSR sort gate)
Measurement: low polyreactivity
//
Residue Sequence: QVQLVESGGGLVQAGGSLRLSCAASGGIFWAYAMGWYRQAPGKERELVAAITTLGTSTYYADSVKGRFTISRDNAKNTVYLQMNSLKPEDTGVYYCAAVDPYSYSFDYWGQGTQVTVSS
Test Readout: polyreactivity (PSR sort gate)
Measurement: high polyreactivity

// next item, polyreactivity (PSR sort gate) requested
Item QVQLVESAGGLVQEGGSLRLSCAASGSISAPYAMGWYRQAPGKERELVAAISWRGGRTYYADSVKGRFTISRDNAKNTVYLQMNSLKTEDTAVDYCAAKFRLGQFDYDYWGQGTQVTVSS has what recorded polyreactivity (PSR sort gate)? high polyreactivity

----------
# Procedure Text: yeast display, Sf9 membrane polyspecificity reagent, FACS + sequencing; frameworks hold sequencing errors
Test Readout: polyreactivity (PSR sort gate)

Worked cases, answers included:
Residue Sequence: QVQLVESGGGLVQAGGSLRLSCAASGSIFIVYAMGWYRQAPGKERELVAGIRGRGGSTYYADSVKGRFTISRDNAKNTVYLQMNSLKPEDTAVYYCAANPRSYQSPYGYWGQGTQVTVSS
polyreactivity (PSR sort gate): high polyreactivity
--
Residue Sequence: QVQLVESGGGLVQAGGSLRLSCAASGFTFGSYAMGWYRQAPGKERELVARISSDGSTNYAVSVNGRFTISRDNAKNTVYLQMNSLKPEDTAVYYCAADPVHRFPGTGGYWGQGTQVTVSS
polyreactivity (PSR sort gate): low polyreactivity
--
Residue Sequence: QVQLVESGGGLVQAGGSLRLSCAASGRTFRYNAMGWYRQAPGKERDLVAAISYSGGRTNYADSVKGRFTISRDNAKNTVYLQMNSLKPEDTAVYDCATGYAVYLSRRDYWGQGTQVTVSS
polyreactivity (PSR sort gate): high polyreactivity
--
Residue Sequence: QVQLVESGGGLVQAGGSLRLSCAASGSTFRYYAMGWYRQAPGKERELVAAISWSGGSTYYADSVKGRFTISRDNAKNTVYLQMNSLKPEDTAVYYCNKAWFPYYYYRFDYWGQGTQVTVSS
polyreactivity (PSR sort gate): high polyreactivity
--
Residue Sequence: QVQLVESGGGLVQAGGSLRLSCAASGSTFNRYAMGWYRQAPGKERELVASISWGGGRTYYADSVKGRFTISRDNAKNTVYLQMNSLKPEDTAVYYCATDRYYRHYEVDYWGQGTQVTVSS
polyreactivity (PSR sort gate): low polyreactivity
--
Residue Sequence: QVQLVESGGGLVQAGGSLRLSCAASGFTFSRYAMGWYRQAPGKERELVAAIRLRDGITYYADSVKGRFTISRDNAKNTVYLQMISLKPEDTAVYYCNAVNRTPVSQLDYWGQGTQVTVSS
polyreactivity (PSR sort gate): high polyreactivity

Using the record for QVQLEESGGGLVQAGGSLRLSCAASGRIFPRNAMGWYRQATGKERELVASITSGGSTNYADSVKGRFTISRDNAKNTVYLQMHSLKPEDTAVYYCAADRTGYQLETTEYDYWGQGTQVTVSS , report its polyreactivity (PSR sort gate). high polyreactivity

Given QVLLQESGGGLVQAGGSLRLSCAASGNIFSAGGMGWYRQAPVNERELVAGIGTGTSTNYADSVKGRFTISRDNAKNTVYLQMTSLKPEVTAVYYCAAAYYSGLSHWYWGQGTQVTVSS , state its recorded polyreactivity (PSR sort gate). low polyreactivity

Look up polyreactivity (PSR sort gate): QVQLVESGGGLVQAGGSLRLSCAASGSIFYRNALGWYRQAPGKERELVAAISSDGSTNYADSVKGRFTISRDNAKNTVYLQMNSLKPEDTAVYYCAAPWTQILDYWGQGTQVTVSS low polyreactivity

Quick one: polyreactivity (PSR sort gate) of QVQLVESGGGLVQAGGSLRLSCAASGFIFVRYAMGWYRQAPGTERELVASITRSGGSTYYADSVKGRFTISRDNAKNTVYLQLNSLKPEDSAVYYCAASYYRSRGSTYGYWGQGTQVTVSS ? high polyreactivity

What value of measured polyreactivity (PSR sort gate) is listed for QVQLVESGGGLDQAGGSLRLSCAASGSTFVGYAMGWYRQAPGKERELVAAISYSGGRTYYADSVKGRFTISRDNAKNTVYLQMNSLKPEDTAVYYCAALVGGSGWWGRDYWGQGTQVTVSS ? high polyreactivity

----------
# Procedure Text: yeast display, Sf9 membrane polyspecificity reagent, FACS + sequencing; frameworks hold sequencing errors
Test Readout: polyreactivity (PSR sort gate)

Below: 6 sequences and their reported polyreactivity (PSR sort gate).
Residue Sequence: QVQLVESGGGLVQAGGSLRLSCAASGRSFQGYAMGWYRKAPGKERELVAAISWSGGSTYYADSVKGRFTISRDNAKNTVYLQMNSLKPEDTAVYYCAASYDIYGNYRRYDYWGQGTQVTVSS
Measurement: high polyreactivity

Residue Sequence: QVQLVESGGGLVQAGGSLRLSCAASGFTFRYYVMGWYRQAPGKERELVAAITSGGRTHYADSVKGRFTISRDNAKNTDYLQMNSLKPEDTAVYYCAVRTQFAGLHYYYGYWGQGTQVTVSS
Measurement: high polyreactivity

Residue Sequence: QVQLVESGGGLVQAGDSLRLICAASGFIFDNYAMGWYRQAPGKERELVAAISQSGTSTYYADSVKVRFTISRDIAKNTVYLQLISLKPEDTAVYYCNVVPTGVHIFDYWGQGTQVTVSS
Measurement: low polyreactivity

Residue Sequence: QVQLVESGGGLVQAGGSLRLSCAASGITFEGYAMGWFRPAPGKERELVAAIRSSGTSTYYADSVKGRFTISRDNAKTTVYLQMNSQKPVDTAVYYCNRARSSSRYDYWGQGTQVTVSS
Measurement: low polyreactivity

Residue Sequence: QVQLVESVGGLVQAGGSLRLSSAASGFTFTHYAMGWYRQAPGKERELVAAISTSGGSTYYADSVKGRFTISRDNAKNTVYLQMNSLKPEDTAVYYCAARRDGWVQWGYYYWGQGTQVTVSS
Measurement: low polyreactivity

Residue Sequence: QVQLVESGGGLVQAGGSLRLSCAASGNIFYSYAMGWYRQAPGNERELVAAISWGGGRTYYADSVKGRFTISRDNAKNTVYLQMNSLKPEDTAVYYCNKVTRGGYDYWGQGTQVTVSS
Measurement: high polyreactivity

Fill blank: measured polyreactivity (PSR sort gate) of the sequence QVQLVESGGGLVQAGGRLRLSCAASGRIFSTYAMGWYRQAPGKQRQLVAAINKSGGSTYYADSVKGRFTISRDTAKNTVYLQMNSLKPEDTAVYYCAADQSYPKRLPSFEYWGQGTQVTVSS is ____. low polyreactivity

Look up polyreactivity (PSR sort gate) for this sequence: QVQLVESGGGLVQAGGSLRLSCAASGSTFSVYAMGWYRQAPGKERELVATISWGGGITYYADSVKGRFTISRDNAKNTVYLQMNSLKPEDTAVYYCAAYARYPRYYYWGQGTQVTVSS high polyreactivity

Data origin, for the record: the nanobody polyreactivity screen of Harvey et al. (2022)
